Listing of recorded self-splicing fitness (ln) by entry.
measurementNotes: self-splicing fitness, log relative to wild type (ln ratio); higher = more splicing; Tetrahymena group I intron in knt gene, E. coli kanamycin selection, DiMSum; sequences stand for … in CUCUCU…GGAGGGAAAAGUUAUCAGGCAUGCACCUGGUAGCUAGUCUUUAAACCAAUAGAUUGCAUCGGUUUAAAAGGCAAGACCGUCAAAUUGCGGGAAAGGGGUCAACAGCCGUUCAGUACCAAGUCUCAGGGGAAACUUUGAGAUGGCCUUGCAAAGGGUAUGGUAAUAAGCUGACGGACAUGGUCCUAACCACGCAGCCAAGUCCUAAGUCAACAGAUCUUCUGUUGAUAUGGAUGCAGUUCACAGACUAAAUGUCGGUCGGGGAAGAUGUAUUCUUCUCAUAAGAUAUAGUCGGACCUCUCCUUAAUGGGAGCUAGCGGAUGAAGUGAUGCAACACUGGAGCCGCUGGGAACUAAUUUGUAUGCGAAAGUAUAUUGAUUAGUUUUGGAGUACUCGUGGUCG;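 also: selection with 25 µg/mL kanamycin versus none on LB agar overnight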
testConditions: 37 °C
// return just the number, without any unit appended

The cases that follow already have their self-splicing fitness (ln) on record.
> print(dat)
   macromoleculesequence            measuredquantity  experimentalresult
1   GCCUAGCAAUAUUACGCCGG  self-splicing fitness (ln)               -3.09
2   CGUUAGCAAUAUUACGCUUU  self-splicing fitness (ln)               -2.41
3   AUAUAGCAAUAUUACGCUAU  self-splicing fitness (ln)              -0.715
4   AAGGAGCAAUAUUACGUCUA  self-splicing fitness (ln)              -0.933
5   UCGAAGCAAUAUUACGGCGA  self-splicing fitness (ln)              -0.539

**Query** Which self-splicing fitness (ln) reading was recorded for the sequence UCGCAGCAAUAUUACGAGAC ?
**Result** -1.6

**Query** Which self-splicing fitness (ln) reading was recorded for the sequence AGCAAGCAAUAUUACGGAUG ?
**Result** -2.17

**Query** Which self-splicing fitness (ln) reading was recorded for the sequence CCUGAGCAAUAUUACGGCUU ?
**Result** -3.02
